B1: Subtilisin-chymotrypsin inhibitor-2A, P01053 (parent)
chain: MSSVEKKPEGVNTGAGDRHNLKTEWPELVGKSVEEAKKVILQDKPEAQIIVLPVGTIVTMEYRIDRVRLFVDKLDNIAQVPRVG

Variants of: B1
Conditions: Hordeum vulgare; pH 6.3; 46.6 °C; Thermal; Fluorescence; phosphate 10 mM; reversible: yes; structure 2CI2; whole UniProt chain shown
property: ddG of mutation (higher = less stable) (kJ/mol)
Give bare numbers, in kJ/mol.

A selection of reference data follows.
[[record]]
sequence_change = "I77V"
quantitative_result = -0.795

[[record]]
sequence_change = "F70L"
quantitative_result = 8.83

[[record]]
sequence_change = "K38G"
quantitative_result = 4.06

[[record]]
sequence_change = "V71A"
quantitative_result = 8.16

[[record]]
sequence_change = "I50V"
quantitative_result = -0.335

[[record]]
sequence_change = "E34A E35A"
quantitative_result = 3.18


Working through the 3 variants below one at a time, give ddG of mutation (higher = less stable) for each.
1. S32A
2. L52A
3. I40V

Output line:
1: 3.72; 2: 9.92; 3: 5.44

Input line: // returns reported ddG of mutation (higher = less stable) for input T23A
Output line: 3.56

# credit: FireProtDB (doi:10.1021/bi00005a026)
